- target: GSPT1 (Homo sapiens, UniProt P15170+Q96SW2)
- Sequence (P15170 whole entry): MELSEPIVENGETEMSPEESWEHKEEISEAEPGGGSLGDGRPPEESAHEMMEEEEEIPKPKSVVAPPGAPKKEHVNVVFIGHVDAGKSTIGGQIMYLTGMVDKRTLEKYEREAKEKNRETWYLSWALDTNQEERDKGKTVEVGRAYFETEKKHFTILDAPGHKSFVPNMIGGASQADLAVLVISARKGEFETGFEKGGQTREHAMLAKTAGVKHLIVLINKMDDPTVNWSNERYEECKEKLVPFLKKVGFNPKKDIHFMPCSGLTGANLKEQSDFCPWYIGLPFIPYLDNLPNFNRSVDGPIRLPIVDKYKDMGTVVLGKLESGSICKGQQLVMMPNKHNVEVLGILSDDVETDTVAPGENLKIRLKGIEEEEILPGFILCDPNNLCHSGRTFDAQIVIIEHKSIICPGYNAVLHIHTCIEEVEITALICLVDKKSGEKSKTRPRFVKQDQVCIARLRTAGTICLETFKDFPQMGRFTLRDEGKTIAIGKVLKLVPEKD
- Sequence (Q96SW2 whole entry): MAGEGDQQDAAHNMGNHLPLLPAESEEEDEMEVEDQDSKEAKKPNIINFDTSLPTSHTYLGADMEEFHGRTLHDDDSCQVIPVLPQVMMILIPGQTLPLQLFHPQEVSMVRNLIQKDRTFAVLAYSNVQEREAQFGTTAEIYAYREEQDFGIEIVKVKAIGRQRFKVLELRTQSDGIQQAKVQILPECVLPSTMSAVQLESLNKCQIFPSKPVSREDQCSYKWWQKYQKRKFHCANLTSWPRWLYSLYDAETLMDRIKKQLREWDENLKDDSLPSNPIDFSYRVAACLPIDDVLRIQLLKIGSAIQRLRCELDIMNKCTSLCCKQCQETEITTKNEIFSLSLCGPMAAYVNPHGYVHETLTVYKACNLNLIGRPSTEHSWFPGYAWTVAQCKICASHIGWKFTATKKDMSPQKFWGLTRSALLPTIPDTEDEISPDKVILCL
- Sequence (Q16531 whole entry partner): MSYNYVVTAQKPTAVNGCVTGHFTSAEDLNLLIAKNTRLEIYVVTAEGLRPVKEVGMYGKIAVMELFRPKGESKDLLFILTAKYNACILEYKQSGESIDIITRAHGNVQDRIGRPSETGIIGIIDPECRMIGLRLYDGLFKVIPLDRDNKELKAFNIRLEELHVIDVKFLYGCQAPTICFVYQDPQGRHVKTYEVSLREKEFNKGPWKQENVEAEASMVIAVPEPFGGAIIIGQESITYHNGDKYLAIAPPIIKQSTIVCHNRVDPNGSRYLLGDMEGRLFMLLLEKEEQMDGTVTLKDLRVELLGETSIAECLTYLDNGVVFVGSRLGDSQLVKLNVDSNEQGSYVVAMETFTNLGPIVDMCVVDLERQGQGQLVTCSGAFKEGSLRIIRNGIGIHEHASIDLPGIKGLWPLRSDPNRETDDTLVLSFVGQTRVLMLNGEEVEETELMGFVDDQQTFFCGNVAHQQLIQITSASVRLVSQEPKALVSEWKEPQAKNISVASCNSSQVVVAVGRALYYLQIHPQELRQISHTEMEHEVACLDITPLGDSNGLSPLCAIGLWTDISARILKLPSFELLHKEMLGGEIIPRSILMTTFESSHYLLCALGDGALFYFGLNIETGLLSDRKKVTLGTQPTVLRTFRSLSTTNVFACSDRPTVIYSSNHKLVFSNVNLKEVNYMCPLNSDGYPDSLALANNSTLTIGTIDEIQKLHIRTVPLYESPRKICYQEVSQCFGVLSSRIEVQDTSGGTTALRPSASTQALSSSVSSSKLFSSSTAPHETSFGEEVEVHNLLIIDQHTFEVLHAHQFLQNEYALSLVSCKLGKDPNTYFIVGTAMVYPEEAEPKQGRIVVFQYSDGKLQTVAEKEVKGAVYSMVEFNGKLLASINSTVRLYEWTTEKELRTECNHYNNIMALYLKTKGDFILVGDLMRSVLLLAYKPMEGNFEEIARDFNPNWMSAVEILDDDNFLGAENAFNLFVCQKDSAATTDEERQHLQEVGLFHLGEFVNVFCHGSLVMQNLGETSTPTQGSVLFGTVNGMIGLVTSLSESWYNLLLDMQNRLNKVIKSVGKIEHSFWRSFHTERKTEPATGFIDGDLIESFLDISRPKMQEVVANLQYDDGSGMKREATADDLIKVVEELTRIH
- Assay type: cell-based
- experimentalSetup: read-out: GSPT1 degradation classification; DC50, GSPT1_HiBIT_HEK293 cells, 16 hours, Nano-Glo HiBiT Lytic Detection
outcomeMeasure: DC50

The compound listed as O=C1CCC(N2Cc3cc(C(=O)N4CC5(C4)CC(F)(c4cccc(F)c4)C5)ccc3C2=O)C(=O)N1 (stereo not shown) has a reported DC50 of > 1000 nM

The compound listed as O=C1CCC(N2Cc3cc(C(=O)N4CC5(C=C(c6ccc(C(F)(F)F)cc6)C5)C4)ccc3C2=O)C(=O)N1 (stereo not shown) has a reported DC50 of < 100 nM

The compound listed as O=C1CCC(N2Cc3cc(C(=O)N4CC5(CC(C(F)(F)F)C5)C4)ccc3C2=O)C(=O)N1 (stereo not shown) has a reported DC50 of > 1000 nM
